Target: Acetylcholinesterase (Bos taurus, UniProt P23795)
Sequence (P23795 whole entry): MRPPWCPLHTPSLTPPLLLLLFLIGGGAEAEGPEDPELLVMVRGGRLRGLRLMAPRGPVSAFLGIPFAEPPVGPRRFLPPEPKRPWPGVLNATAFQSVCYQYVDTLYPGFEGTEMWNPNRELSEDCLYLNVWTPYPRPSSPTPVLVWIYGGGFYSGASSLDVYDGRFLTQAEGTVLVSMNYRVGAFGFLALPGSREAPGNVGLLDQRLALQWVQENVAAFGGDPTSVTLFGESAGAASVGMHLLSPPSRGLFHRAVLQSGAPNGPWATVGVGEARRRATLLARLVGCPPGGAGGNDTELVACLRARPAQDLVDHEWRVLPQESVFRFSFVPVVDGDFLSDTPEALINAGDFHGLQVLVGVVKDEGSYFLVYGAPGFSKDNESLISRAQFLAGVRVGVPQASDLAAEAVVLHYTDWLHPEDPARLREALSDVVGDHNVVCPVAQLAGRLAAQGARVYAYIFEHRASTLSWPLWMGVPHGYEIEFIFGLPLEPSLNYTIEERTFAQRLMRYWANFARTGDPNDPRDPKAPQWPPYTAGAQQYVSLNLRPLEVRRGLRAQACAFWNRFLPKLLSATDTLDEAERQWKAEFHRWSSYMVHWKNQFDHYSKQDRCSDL
IC50 reference

CN(C)S(=O)(=O)N1N=C(OS(C)(=O)=O)CC1c1ccccc1 (configuration not stated)    > 1000 µM

## Input Given the entry COP(=O)(OC)C(O)C(Cl)(Cl)Cl (configuration not stated) , what IC50 was observed with Acetylcholinesterase (Bos taurus, UniProt P23795)?
## Output > 1000 µM

## Input Given the entry CC(C)NC(=O)N1N=C(OS(C)(=O)=O)CC1C (configuration not stated) , what IC50 was observed with Acetylcholinesterase (Bos taurus, UniProt P23795)?
## Output 28.6 µM

## Input Given the entry CC(C)NC(=O)N1N=C(OS(C)(=O)=O)CC1C(C)C (configuration not stated) , what IC50 was observed with Acetylcholinesterase (Bos taurus, UniProt P23795)?
## Output 602 µM

## Input Given the entry `CC(C)C(=O)N1N=C(OS(C)(=O)=O)CC1(C)C` , what IC50 was observed with Acetylcholinesterase (Bos taurus, UniProt P23795)?
## Output > 1000 µM

## Input Given the entry `CC(C)NS(=O)(=O)N1N=C(OS(C)(=O)=O)CC1(C)C` , what IC50 was observed with Acetylcholinesterase (Bos taurus, UniProt P23795)?
## Output 1270 µM

## Input Given the entry `CC1(C)CC(OS(C)(=O)=O)=NN1C(=O)Nc1ccccc1` , what IC50 was observed with Acetylcholinesterase (Bos taurus, UniProt P23795)?
## Output > 1000 µM

## Input Given the entry `CC1(C)CC(OS(C)(=O)=O)=NN1C(=O)NC1CCCCC1` , what IC50 was observed with Acetylcholinesterase (Bos taurus, UniProt P23795)?
## Output 284 µM

## Input Given the entry `CCOC(=O)N1N=C(OS(C)(=O)=O)CC1(C)C` , what IC50 was observed with Acetylcholinesterase (Bos taurus, UniProt P23795)?
## Output > 1000 µM
